FI50 values by entry
target: HLA-A2 MHC class I molecule (human); test: T2 binding assay, surface HLA-A2 by flow cytometry
Return type: number; implicit unit µM.

In: Which measured FI50 value corresponds to YLFPSAPSPV [1Y2L xage-1 14] ?
Out: 3.04

In: GET /values?readout=FI50&item= YVFPSAPSPV [1Y xage-1 14]
Out: 2.36

In: Record request: FI50 value, item GVMPSAPSPV [3M xage-1 14]
Out: 0.28

In: Which FI50 value is on record for GLFPSAPSPV [2L xage-1 14] ?
Out: 1.86

In: So what does the record say about FI50 for GLMPSAPSPV [2L3M xage-1 14] ?
Out: 0.62
